Reference for the values: patent US20080090770A1

TARGET DESC: GST-RIM2 (KIAA0751) PDZ domain 1 (human)
PROTOCOL TEXT: modified ELISA, plated GST-RIM2 PDZ domain, biotinylated peptide 0.001-10 µM, curve fit; Relative EC50
pEC50: −log10 of the molar value.
OBSERVED PROPERTY: pEC50

Q) Which measured pEC50 value corresponds to YGRKKRRQRRRARGRRETWV (modifications not checked) [… (SEQ ID NO: 170)] ?
A) > 8.00
